Reported values of % inhibition at 50 μM (or 100 μM if racemate) Smooth for individual entries
ASSAYED TARGET: isolated smooth muscle myosin (UniProt P10587)
Sequence (P10587 whole entry): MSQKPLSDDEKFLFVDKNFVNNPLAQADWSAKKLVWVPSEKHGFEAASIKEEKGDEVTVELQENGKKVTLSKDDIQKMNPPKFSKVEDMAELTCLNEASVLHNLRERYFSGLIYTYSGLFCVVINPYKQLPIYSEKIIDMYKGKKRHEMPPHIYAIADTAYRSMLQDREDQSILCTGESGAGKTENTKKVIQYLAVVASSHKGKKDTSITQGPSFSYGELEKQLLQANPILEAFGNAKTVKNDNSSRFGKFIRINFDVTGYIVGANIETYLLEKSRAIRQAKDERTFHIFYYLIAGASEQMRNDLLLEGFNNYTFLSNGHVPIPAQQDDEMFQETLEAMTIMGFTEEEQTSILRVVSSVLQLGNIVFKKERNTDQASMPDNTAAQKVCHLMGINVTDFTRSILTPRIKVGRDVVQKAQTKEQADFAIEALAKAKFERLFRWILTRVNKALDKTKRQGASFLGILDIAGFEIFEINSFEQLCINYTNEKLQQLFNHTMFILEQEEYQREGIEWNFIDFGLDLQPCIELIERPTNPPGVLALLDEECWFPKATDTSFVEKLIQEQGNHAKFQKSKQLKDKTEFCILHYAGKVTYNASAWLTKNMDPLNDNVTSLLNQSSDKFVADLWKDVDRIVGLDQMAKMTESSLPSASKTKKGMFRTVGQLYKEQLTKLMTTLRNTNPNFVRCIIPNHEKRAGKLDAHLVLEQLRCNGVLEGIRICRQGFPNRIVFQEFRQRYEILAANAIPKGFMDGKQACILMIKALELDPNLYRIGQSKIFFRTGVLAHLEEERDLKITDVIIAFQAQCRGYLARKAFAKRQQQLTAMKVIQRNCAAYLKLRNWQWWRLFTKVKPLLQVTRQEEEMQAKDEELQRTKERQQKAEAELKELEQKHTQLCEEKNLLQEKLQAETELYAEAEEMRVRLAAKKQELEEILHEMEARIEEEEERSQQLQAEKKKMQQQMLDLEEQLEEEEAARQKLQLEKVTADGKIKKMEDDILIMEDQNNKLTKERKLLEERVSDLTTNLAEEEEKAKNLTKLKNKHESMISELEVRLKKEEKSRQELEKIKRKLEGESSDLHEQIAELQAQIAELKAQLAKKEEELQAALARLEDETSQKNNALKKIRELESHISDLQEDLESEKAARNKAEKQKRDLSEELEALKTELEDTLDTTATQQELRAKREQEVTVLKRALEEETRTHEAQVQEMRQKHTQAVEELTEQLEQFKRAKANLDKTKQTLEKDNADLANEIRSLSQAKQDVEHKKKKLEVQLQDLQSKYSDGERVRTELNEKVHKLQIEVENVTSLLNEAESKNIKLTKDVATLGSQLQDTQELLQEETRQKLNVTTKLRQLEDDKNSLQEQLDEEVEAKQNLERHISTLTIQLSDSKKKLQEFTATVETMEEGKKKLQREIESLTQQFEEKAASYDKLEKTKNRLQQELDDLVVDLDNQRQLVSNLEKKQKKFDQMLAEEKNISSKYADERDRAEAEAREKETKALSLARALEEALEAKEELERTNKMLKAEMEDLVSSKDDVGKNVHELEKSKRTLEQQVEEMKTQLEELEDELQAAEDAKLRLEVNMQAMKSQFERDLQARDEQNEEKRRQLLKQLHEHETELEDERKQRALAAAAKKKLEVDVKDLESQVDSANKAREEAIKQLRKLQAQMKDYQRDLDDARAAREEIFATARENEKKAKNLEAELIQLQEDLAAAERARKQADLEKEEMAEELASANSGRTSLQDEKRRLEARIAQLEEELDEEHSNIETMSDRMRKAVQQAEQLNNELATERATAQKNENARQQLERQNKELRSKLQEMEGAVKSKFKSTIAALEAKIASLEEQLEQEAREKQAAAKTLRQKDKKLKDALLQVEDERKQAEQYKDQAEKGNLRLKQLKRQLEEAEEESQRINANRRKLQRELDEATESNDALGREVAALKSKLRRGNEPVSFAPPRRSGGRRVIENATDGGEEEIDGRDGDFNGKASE
Type: biochemical, chamois
STUDY CONDITIONS: 50 μM (100 μM if racemate); ATPase activity
REPORTED PROPERTY: % inhibition at 50 μM (or 100 μM if racemate) Smooth

{"COMPOUND": "CN(C)c1ccc(N2CCC3(O)C(=O)c4ccncc4N=C23)cc1 (stereo not drawn)", "REPORTED": "25%"}
{"COMPOUND": "O=C1c2ccsc2N=C2N(c3ccc(OC(F)(F)F)cc3)CC[C@@]12O", "REPORTED": "61%"}
{"COMPOUND": "Cc1cc2c(s1)N=C1N(c3ccc(C#N)cc3)CCC1(O)C2=O (stereo not drawn)", "REPORTED": "96%"}
{"COMPOUND": "Cc1nsc2c1C(=O)C1(O)CCN(c3ccccc3)C1=N2 (stereo not drawn)", "REPORTED": "21%"}
{"COMPOUND": "Cc1ccc(N2CC[C@@]3(O)C(=O)c4ccsc4N=C23)cc1", "REPORTED": "70%"}
{"COMPOUND": "CC(=O)c1ccc(N2CC[C@@]3(O)C(=O)c4ccsc4N=C23)cc1", "REPORTED": "52%"}
{"COMPOUND": "Cc1ccc(N2CCC3(O)C(=O)c4ccncc4N=C23)cc1 (stereo not drawn)", "REPORTED": "15%"}
{"COMPOUND": "CN(C)c1ccc(N2CC[C@@]3(O)C(=O)c4ccsc4N=C23)cc1", "REPORTED": "55%"}
{"COMPOUND": "Cc1cc2c(s1)N=C1NCCC1(O)C2=O (stereo not drawn)", "REPORTED": "2%"}

* * *

EXPERIMENTAL DETAILS: tissue concentrations after intraperitoneal injection into a live rat
Assay type: in vivo
STUDY CONDITIONS: myocardium, ip, 6 mg i.p., 15 min, read-out: Concentration of compound 188 in tissue samples (μM) myocardium

{"COMPOUND": "O=C1c2ccsc2N=C2N(c3ccc(N4CCOCC4)cc3)CCC12O (stereo not shown)", "concentration at 15 min, µM": 48}

* * *

Reported values of % inhibition at 5 μM (or 10 μM if racemate) Skeletal for individual entries
System: isolated rabbit skeletal muscle myosin (skeletal)
EXPERIMENTAL DETAILS: actomyosin steady state ATPase measurement, skeletal muscle myosin
Assay type: biochemical
STUDY CONDITIONS: 5 μM (10 μM if racemate); ATPase activity
REPORTED PROPERTY: % inhibition at 5 μM (or 10 μM if racemate) Skeletal (%)

{"COMPOUND": "O=C1c2ccsc2N=C2N(c3ccccc3)CCC12O (centres unmarked) [Compound 180]", "REPORTED": 87}
{"COMPOUND": "CC(=O)c1ccc(N2CCC3(O)C(=O)c4cc(C)sc4N=C23)cc1 (centres unmarked) [Compound 225]", "REPORTED": 93}
{"COMPOUND": "COc1ccc(N2CCC3(O)C(=O)c4cc(C)sc4N=C23)cc1 (centres unmarked) [Compound 222]", "REPORTED": 92}
{"COMPOUND": "O=C1c2ccsc2N=C2N(c3ccc(N4CCOCC4)cc3)CCC12O (centres unmarked) [Compound 188]", "REPORTED": 50}
{"COMPOUND": "Cc1ccc(N2CC[C@@]3(O)C(=O)c4ccsc4N=C23)cc1 [Compound 233]", "REPORTED": 92}

* * *

ASSAYED TARGET: isolated porcine cardiac ventricular myocardium (cardiac) (Sus scrofa, UniProt P79293)
Construct: isolated porcine cardiac ventricular myocardium (cardiac); from tissue; host or cells: porcine cardiac ventricle
Sequence (P79293 whole entry): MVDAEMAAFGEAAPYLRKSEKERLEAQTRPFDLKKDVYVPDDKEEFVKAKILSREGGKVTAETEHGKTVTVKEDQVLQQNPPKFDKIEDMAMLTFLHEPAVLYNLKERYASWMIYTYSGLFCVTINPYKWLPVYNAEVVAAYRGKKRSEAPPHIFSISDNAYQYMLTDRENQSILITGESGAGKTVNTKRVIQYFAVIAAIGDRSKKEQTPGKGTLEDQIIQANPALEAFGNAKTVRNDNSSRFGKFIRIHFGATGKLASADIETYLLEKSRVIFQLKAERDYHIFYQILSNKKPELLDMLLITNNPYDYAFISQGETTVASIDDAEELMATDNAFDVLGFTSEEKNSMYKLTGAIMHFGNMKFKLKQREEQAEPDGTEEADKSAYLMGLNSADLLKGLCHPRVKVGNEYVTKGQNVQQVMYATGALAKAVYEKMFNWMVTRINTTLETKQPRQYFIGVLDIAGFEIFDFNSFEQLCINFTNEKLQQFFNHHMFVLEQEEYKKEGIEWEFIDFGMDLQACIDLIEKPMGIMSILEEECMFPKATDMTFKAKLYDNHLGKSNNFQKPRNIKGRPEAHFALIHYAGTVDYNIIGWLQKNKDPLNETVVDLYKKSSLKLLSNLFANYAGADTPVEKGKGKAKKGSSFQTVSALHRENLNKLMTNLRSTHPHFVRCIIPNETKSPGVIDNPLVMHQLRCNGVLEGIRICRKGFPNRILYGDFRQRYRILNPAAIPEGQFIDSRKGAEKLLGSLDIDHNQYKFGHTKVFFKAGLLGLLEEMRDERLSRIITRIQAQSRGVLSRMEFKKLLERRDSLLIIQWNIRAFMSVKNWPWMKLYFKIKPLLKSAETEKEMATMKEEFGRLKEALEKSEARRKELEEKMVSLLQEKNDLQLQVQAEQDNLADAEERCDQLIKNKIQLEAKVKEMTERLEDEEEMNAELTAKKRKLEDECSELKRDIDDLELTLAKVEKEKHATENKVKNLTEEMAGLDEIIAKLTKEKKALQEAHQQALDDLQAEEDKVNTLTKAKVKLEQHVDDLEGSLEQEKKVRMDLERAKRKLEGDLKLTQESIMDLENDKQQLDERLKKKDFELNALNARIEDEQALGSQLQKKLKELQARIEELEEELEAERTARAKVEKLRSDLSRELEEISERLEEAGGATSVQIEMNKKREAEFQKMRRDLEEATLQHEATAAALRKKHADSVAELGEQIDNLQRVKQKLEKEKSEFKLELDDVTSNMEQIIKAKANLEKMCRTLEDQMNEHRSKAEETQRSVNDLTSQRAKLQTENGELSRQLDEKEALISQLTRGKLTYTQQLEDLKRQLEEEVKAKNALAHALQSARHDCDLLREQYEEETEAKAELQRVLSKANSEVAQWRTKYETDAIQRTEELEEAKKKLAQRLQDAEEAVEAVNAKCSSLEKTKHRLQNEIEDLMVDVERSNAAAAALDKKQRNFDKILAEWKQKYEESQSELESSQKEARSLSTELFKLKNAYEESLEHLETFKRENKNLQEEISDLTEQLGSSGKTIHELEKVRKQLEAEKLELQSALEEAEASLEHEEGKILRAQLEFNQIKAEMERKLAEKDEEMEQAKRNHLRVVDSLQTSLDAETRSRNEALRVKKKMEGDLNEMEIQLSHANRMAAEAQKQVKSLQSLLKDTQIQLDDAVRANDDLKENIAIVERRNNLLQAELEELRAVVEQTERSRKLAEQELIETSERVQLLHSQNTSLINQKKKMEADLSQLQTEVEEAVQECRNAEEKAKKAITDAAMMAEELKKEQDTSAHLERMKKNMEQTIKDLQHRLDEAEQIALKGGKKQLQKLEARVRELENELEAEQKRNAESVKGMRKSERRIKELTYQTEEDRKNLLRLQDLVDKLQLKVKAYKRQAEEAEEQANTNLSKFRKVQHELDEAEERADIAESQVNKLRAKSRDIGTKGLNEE
EXPERIMENTAL DETAILS: actomyosin steady state ATPase measurement, cardiac myosin
Format: biochemical
STUDY CONDITIONS: maximum value of inhibition of ATPase activity
Short version: % inhibition. complete cardiac at least 80% is condition met, less is condition not met.

{"COMPOUND": "Cc1ccc(N2CC[C@@]3(O)C(=O)c4ccsc4N=C23)cc1 [Compound 233]", "CLASS LABEL": "condition met"}
{"COMPOUND": "Cc1cc2c(s1)N=C1N(c3ccc(CO)cc3)CCC1(O)C2=O (stereo not drawn) [Compound 227]", "CLASS LABEL": "condition met"}
{"COMPOUND": "CC(=O)c1ccc(N2CCC3(O)C(=O)c4ccncc4N=C23)cc1 (stereo not drawn) [Compound 240]", "CLASS LABEL": "condition not met"}
{"COMPOUND": "O=C1c2cccnc2N=C2N(c3ccccc3)CCC12O (stereo not drawn) [Compound 189]", "CLASS LABEL": "condition not met"}
{"COMPOUND": "Cc1cc2c(s1)N=C1N(c3cccs3)CCC1(O)C2=O (stereo not drawn) [Compound 229]", "CLASS LABEL": "condition met"}
{"COMPOUND": "Cc1ccc(N2CCC3(O)C(=O)c4cc(C)sc4N=C23)cc1 (stereo not drawn) [Compound 235]", "CLASS LABEL": "condition not met"}
{"COMPOUND": "Cc1ccc(N2CCC3(O)C(=O)c4ccncc4N=C23)cc1 (stereo not drawn) [Compound 247]", "CLASS LABEL": "condition not met"}
{"COMPOUND": "O=C1c2ccsc2N=C2N(c3ccccc3)CCC12O (stereo not drawn) [Compound 180]", "CLASS LABEL": "condition met"}
{"COMPOUND": "Cc1cc2c(s1)N=C1N(c3ccc(N(C)C)cc3)CCC1(O)C2=O (stereo not drawn) [Compound 250]", "CLASS LABEL": "condition not met"}

* * *

Reported values of log10 of IC50 for individual entries
ASSAYED TARGET: recombinant human non-muscle myosin 2 NM2A (Homo sapiens)
EXPERIMENTAL DETAILS: actomyosin steady state ATPase measurement, NM2A
Format: biochemical
STUDY CONDITIONS: concentration required for semi-maximal inhibition of ATPase
REPORTED PROPERTY: log10 of IC50 (log10 of the value in µM)

{"MOLECULE": "Cc1cc2c(s1)N=C1N(c3ccccc3)CCC1(O)C2=O (stereo not drawn) [Compound 198]", "REPORTED": 1.18}
{"MOLECULE": "O=C1c2cccnc2N=C2N(c3ccccc3)CCC12O (stereo not drawn) [Compound 189]", "REPORTED": 0.78}
{"MOLECULE": "CC(=O)c1ccc(N2CC[C@@]3(O)C(=O)c4ccsc4N=C23)cc1 [Compound 214]", "REPORTED": 0.00}
{"MOLECULE": "Cc1cc2c(s1)N=C1N(c3cccs3)CC[C@@]1(O)C2=O [Compound 208]", "REPORTED": 0.86}
{"MOLECULE": "O=C1c2sccc2N=C2N(c3ccccc3)CCC12O (stereo not drawn) [Compound 183]", "REPORTED": 1.94}

* * *

Reported values of % inhibition at 50 μM (or 100 μM if racemate) Skeletal for individual entries
System: isolated rabbit skeletal muscle myosin (skeletal)
EXPERIMENTAL DETAILS: actomyosin steady state ATPase measurement, skeletal muscle myosin
Format: biochemical
STUDY CONDITIONS: 50 μM (100 μM if racemate); ATPase activity
REPORTED PROPERTY: % inhibition at 50 μM (or 100 μM if racemate) Skeletal (%)

{"COMPOUND": "O=C1c2ccsc2N=C2N(c3ccc(CO)cc3)CC[C@@]12O [Compound 216]", "MEASUREMENT UNIT": "%", "REPORTED": 95}
{"COMPOUND": "O=C1c2ncccc2N=C2N(c3ccccc3)CCC12O (centres unmarked) [Compound 190]", "MEASUREMENT UNIT": "%", "REPORTED": 86}
{"COMPOUND": "Cc1cc2c(s1)N=C1N(c3cccs3)CC[C@@]1(O)C2=O [Compound 208]", "MEASUREMENT UNIT": "%", "REPORTED": 93}
{"COMPOUND": "O=C1c2ccsc2N=C2NCC[C@@]12O [Compound 207]", "MEASUREMENT UNIT": "%", "REPORTED": 14}
{"COMPOUND": "CN(C)c1ccc(N2CCC3(O)C(=O)c4ccncc4N=C23)cc1 (centres unmarked) [Compound 251]", "MEASUREMENT UNIT": "%", "REPORTED": 85}

* * *

ASSAYED TARGET: isolated smooth muscle myosin (UniProt P10587)
Type: biochemical, chamois
STUDY CONDITIONS: concentration required for semi-maximal inhibition of ATPase
Mark t only when IC50 stays strictly below 6 µM. Values equal to the cut-off are f.

{"COMPOUND": "N#CCc1ccc(N2CC[C@@]3(O)C(=O)c4ccsc4N=C23)cc1", "CLASS LABEL": "t"}
{"COMPOUND": "COc1ccc(N2CCC3(O)C(=O)c4cc(C)sc4N=C23)cn1 (stereo not drawn)", "CLASS LABEL": "t"}
{"COMPOUND": "Cc1cc2c(s1)N=C1N(c3ccc(C#N)cc3)CCC1(O)C2=O (stereo not drawn)", "CLASS LABEL": "t"}
{"COMPOUND": "CN(C)c1ccc(N2CC[C@@]3(O)C(=O)c4ccsc4N=C23)cc1", "CLASS LABEL": "f"}
{"COMPOUND": "CN(C)c1ccc(N2CCC3(O)C(=O)c4ccncc4N=C23)cc1 (stereo not drawn)", "CLASS LABEL": "f"}
{"COMPOUND": "Cc1ccc(N2CCC3(O)C(=O)c4cc(C)sc4N=C23)cc1 (stereo not drawn)", "CLASS LABEL": "t"}
{"COMPOUND": "COc1ccc(N2CC[C@@]3(O)C(=O)c4ccsc4N=C23)cn1", "CLASS LABEL": "f"}
{"COMPOUND": "Cc1cc2c(s1)N=C1N(c3ccc(CC#N)cc3)CCC1(O)C2=O (stereo not drawn)", "CLASS LABEL": "t"}
{"COMPOUND": "Cc1cc2c(s1)N=C1N(c3cccs3)CCC1(O)C2=O (stereo not drawn)", "CLASS LABEL": "t"}
{"COMPOUND": "Cc1cc2c(s1)N=C1N(c3ccc(CO)cc3)CCC1(O)C2=O (stereo not drawn)", "CLASS LABEL": "t"}
{"COMPOUND": "O=C1c2ccsc2N=C2NCC[C@@]12O", "CLASS LABEL": "t"}
{"COMPOUND": "CC(=O)c1ccc(N2CCC3(O)C(=O)c4ccncc4N=C23)cc1 (stereo not drawn)", "CLASS LABEL": "t"}
{"COMPOUND": "O=C1c2ccsc2N=C2N(c3ccccc3)CCC12O (stereo not drawn)", "CLASS LABEL": "f"}
{"COMPOUND": "Cc1cc2c(s1)N=C1N(c3cccs3)CC[C@@]1(O)C2=O", "CLASS LABEL": "f"}
{"COMPOUND": "O=C1c2ccsc2N=C2N(c3ccc(N4CCOCC4)cc3)CCC12O (stereo not drawn)", "CLASS LABEL": "f"}
{"COMPOUND": "CC(=O)c1ccc(N2CCC3(O)C(=O)c4cc(C)sc4N=C23)cc1 (stereo not drawn)", "CLASS LABEL": "t"}
{"COMPOUND": "Cc1cc2c(s1)N=C1N(c3ccc(OC(F)(F)F)cc3)CCC1(O)C2=O (stereo not drawn)", "CLASS LABEL": "t"}
{"COMPOUND": "O=C1c2ccsc2N=C2N(c3ccc(CO)cc3)CC[C@@]12O", "CLASS LABEL": "f"}
{"COMPOUND": "O=C1c2ccncc2N=C2N(c3ccccc3)CCC12O (stereo not drawn)", "CLASS LABEL": "f"}
{"COMPOUND": "Cc1ccc(N2CCC3(O)C(=O)c4ccncc4N=C23)cc1 (stereo not drawn)", "CLASS LABEL": "f"}
{"COMPOUND": "O=C1c2ccncc2N=C2NCCC12O (stereo not drawn)", "CLASS LABEL": "t"}
{"COMPOUND": "O=C1c2ccncc2N=C2N(c3ccc(OC(F)(F)F)cc3)CCC12O (stereo not drawn)", "CLASS LABEL": "f"}
{"COMPOUND": "O=C1c2ccncc2N=C2N(c3ccc(N4CCOCC4)cc3)CCC12O (stereo not drawn)", "CLASS LABEL": "f"}
{"COMPOUND": "Cc1ccc(N2CC[C@@]3(O)C(=O)c4ccsc4N=C23)cc1", "CLASS LABEL": "f"}
{"COMPOUND": "O=C1c2ccsc2N=C2N(c3cccs3)CC[C@@]12O", "CLASS LABEL": "f"}
{"COMPOUND": "CC(=O)c1ccc(N2CC[C@@]3(O)C(=O)c4ccsc4N=C23)cc1", "CLASS LABEL": "f"}
